Origin of the recorded values: patent US8952157B2

- TARGET DESC: GST-Bcl-2 (Homo sapiens (Human))
- Sequence (P10415 whole entry): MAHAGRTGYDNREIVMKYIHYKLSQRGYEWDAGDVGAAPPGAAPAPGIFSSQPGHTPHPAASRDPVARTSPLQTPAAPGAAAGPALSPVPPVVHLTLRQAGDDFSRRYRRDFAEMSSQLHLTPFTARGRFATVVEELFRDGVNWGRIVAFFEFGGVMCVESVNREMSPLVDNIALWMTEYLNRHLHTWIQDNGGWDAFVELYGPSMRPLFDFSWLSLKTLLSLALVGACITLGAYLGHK
- TEST PROTOCOL: Time Resolved-Fluorescence Resonance Energy Transfer (TR-FRET) Bcl-2 binding assay
- APPLIED CONDITIONS: GST-Bcl-2 1 nM, F-Bak peptide probe 100 nM, Tb-anti-GST antibody 1 nM; Ki by Wang's equation
pKi: −log10 of the molar value.
Each entry below lists one item and its recorded pKi value.
MEASUREMENT LABEL: pKi

# SAMPLE SMILES, MEASUREMENT LABEL, COMPARATIVE SIGN, READOUT VALUE
records = [
    ("CN1CCC(Nc2ccc(S(=O)(=O)NC(=O)c3ccc(N4CCN(CC5=C(c6ccc(Cl)cc6)CC(C)(C)CC5)CC4)cc3Oc3cc(F)cc4[nH]ccc34)cc2[N+](=O)[O-])CC1", "pKi", ">", 11.00),
    ("CC1(C)CCC(CN2CCN(c3ccc(C(=O)NS(=O)(=O)c4ccc(NC5CCN(CC6CC6)CC5)c([N+](=O)[O-])c4)c(Oc4ccccc4Cl)c3)CC2)=C(c2ccc(Cl)cc2)C1", "pKi", "=", 10.14),
    ("CN(C)c1cccc(Oc2cc(N3CCN(Cc4ccccc4-c4ccc(Cl)cc4)CC3)ccc2C(=O)NS(=O)(=O)c2ccc(NCC3CCOCC3)c([N+](=O)[O-])c2)c1", "pKi", "=", 7.85),
    ("CC1(C)CCC(CN2CCN(c3ccc(C(=O)NS(=O)(=O)c4ccc(OCC5(F)CCOCC5)c([N+](=O)[O-])c4)c(Oc4cnc(N)c(Cl)c4)c3)CC2)=C(c2ccc(Cl)cc2)C1", "pKi", ">", 11.00),
    ("CN1CCC(Nc2ccc(S(=O)(=O)NC(=O)c3ccc(N4CCN(CC5=C(c6ccc(Cl)cc6)CC(C)(C)CC5)CC4)cc3Oc3cccc(Br)c3)cc2[N+](=O)[O-])CC1", "pKi", "=", 10.33),
]

====

Each entry below lists one item and its recorded Ki value.
- TARGET DESC: GST-Bcl-2 (Homo sapiens (Human))
- TEST PROTOCOL: Time Resolved-Fluorescence Resonance Energy Transfer (TR-FRET) Bcl-2 binding assay
- APPLIED CONDITIONS: GST-Bcl-2 1 nM, F-Bak peptide probe 100 nM, Tb-anti-GST antibody 1 nM; Ki by Wang's equation

# COMPOUND, COMPARATIVE SIGN, Ki (nM)
rows = [
    ("CC1(C)CCC(CN2CCN(c3ccc(C(=O)NS(=O)(=O)c4ccc(NCC5CCOCC5)c([N+](=O)[O-])c4)c(Oc4cc(N)nc(N)c4)c3)CC2)=C(c2ccc(Cl)cc2)C1 [Example 380]", "=", 8.27),
    ("CN1CCC(Nc2ccc(S(=O)(=O)NC(=O)c3ccc(N4CCN(CC5=C(c6ccc(Cl)cc6)CCCCC5)CC4)cc3Oc3ccccc3Cl)cc2[N+](=O)[O-])CC1 [Example 56]", "=", 0.106),
    ("CC1(C)CCC(CN2CCN(c3ccc(C(=O)NS(=O)(=O)c4ccc(OCC5(F)CCN(C6CC6)CC5)c([N+](=O)[O-])c4)c(Oc4cc5cc[nH]c5cc4F)c3)CC2)=C(c2ccc(Cl)cc2)C1 [Example 341]", "=", 0.017),
    ("CC1(C)CCC(CN2CCN(c3ccc(C(=O)NS(=O)(=O)c4ccc(OCC5CCOCC5)c([N+](=O)[O-])c4)c(Oc4cc5cc[nH]c5cc4F)c3)CC2)=C(c2ccc(Cl)cc2)C1 [Example 264]", "=", 0.068),
    ("CN1CCC(Nc2ccc(S(=O)(=O)NC(=O)c3ccc(N4CCN(CC5=C(c6ccc(Cl)cc6)CC(C)(C)CC5)CC4)cc3Oc3ccc4nc(N)sc4c3)cc2[N+](=O)[O-])CC1 [Example 229]", "=", 1.08),
    ("CC1(C)CCC(CN2CCN(c3ccc(C(=O)NS(=O)(=O)c4ccc(NN5CCOCC5)c([N+](=O)[O-])c4)c(Oc4cc5cc[nH]c5cc4F)c3)CC2)=C(c2ccc(Cl)cc2)C1 [Example 252]", "=", 1.15),
    ("CC(C)c1cc(Oc2cc(N3CCN(CC4=C(c5ccc(Cl)cc5)CC(C)(C)CC4)CC3)ccc2C(=O)NS(=O)(=O)c2ccc(NCC3CCOCC3)c([N+](=O)[O-])c2)cnc1N [Example 365]", "=", 4.55),
    ("CC1(C)CCC(CN2CCN(c3ccc(C(=O)NS(=O)(=O)c4ccc(N[C@@H]5CCN(CC(F)F)C5)c([N+](=O)[O-])c4)c(Oc4cnc(N)c(Cl)c4)c3)CC2)=C(c2ccc(Cl)cc2)C1 [Example 353]", "=", 0.016),
    ("CC1(C)CCC(CN2CCN(c3ccc(C(=O)NS(=O)(=O)c4cnc(OC[C@@H]5CCN(CC(F)F)C5)c(Cl)c4)c(Oc4cnc(N)c(Cl)c4)c3)CC2)=C(c2ccc(Cl)cc2)C1 [Example 400]", "=", 0.082),
    ("CN1CCN(Nc2ccc(S(=O)(=O)NC(=O)c3ccc(N4CCN(CC5=C(c6ccc(Cl)cc6)CC(C)(C)OC5)CC4)cc3Oc3cccc(Cl)c3)cc2[N+](=O)[O-])CC1 [Example 185]", "=", 0.083),
    ("CN1CC[C@H](Nc2ccc(S(=O)(=O)NC(=O)c3ccc(N4CCN(CC5=C(c6ccc(Cl)cc6)CC(C)(C)CC5)CC4)cc3Oc3cccc(Cl)c3)cc2[N+](=O)[O-])C1 [Example 194]", "=", 0.317),
    ("CN1CCN(Nc2ccc(S(=O)(=O)NC(=O)c3ccc(N4CCN(CC5=C(c6ccc(Cl)cc6)CC(C)(C)CC5)CC4)cc3Oc3cccc(Cl)c3)cc2[N+](=O)[O-])CC1 [Example 199]", "=", 0.244),
    ("CC1(C)CCC(CN2CCN(c3ccc(C(=O)NS(=O)(=O)c4ccc(NC5CCN(C6CCOCC6)CC5)c([N+](=O)[O-])c4)c(Oc4cc5cc[nH]c5cc4C(F)(F)F)c3)CC2)=C(c2ccc(Cl)cc2)C1 [Example 218]", "=", 0.175),
    ("CCN1CCOCC1COc1ccc(S(=O)(=O)NC(=O)c2ccc(N3CCN(CC4=C(c5ccc(Cl)cc5)CC(C)(C)CC4)CC3)cc2Oc2cc3cc[nH]c3cc2F)cc1[N+](=O)[O-] (stereo not shown) [Example 328]", "=", 0.068),
    ("CC1(C)CCC(CN2CCN(c3ccc(C(=O)NS(=O)(=O)c4ccc(NCC5CCOCC5)c([N+](=O)[O-])c4)c(Oc4ccc(NCC(F)(F)F)nc4)c3)CC2)=C(c2ccc(Cl)cc2)C1 [Example 385]", "=", 49.3),
    ("CN(C)CCCNc1ccc(S(=O)(=O)NC(=O)c2ccc(N3CCN(CC4=C(c5ccc(Cl)cc5)CC(C)(C)CC4)CC3)cc2Oc2ccc3c(ccn3C(=O)OC(C)(C)C)c2)cc1[N+](=O)[O-] [Example 231]", "=", 36.9),
    ("CC1(C)CCC(CN2CCN(c3ccc(C(=O)NS(=O)(=O)c4ccc(NCC5CN(C(CF)CF)CCO5)c([N+](=O)[O-])c4)c(Oc4cnc(N)c(Cl)c4)c3)CC2)=C(c2ccc(Cl)cc2)C1 (stereo not shown) [Example 378]", "<", 0.01),
    ("Cc1c[nH]c2cccc(Oc3cc(N4CCN(CC5=C(c6ccc(Cl)cc6)CC(C)(C)CC5)CC4)ccc3C(=O)NS(=O)(=O)c3ccc(NC4CCN(C)CC4)c([N+](=O)[O-])c3)c12 [Example 66]", "=", 0.592),
    ("O=C(NS(=O)(=O)c1ccc(NCCCN2CCOCC2)c([N+](=O)[O-])c1)c1ccc(N2CCN(Cc3ccccc3-c3ccc(Cl)cc3)CC2)cc1Oc1ccc(-c2ccncc2)cc1 [Example 99]", "=", 71.4),
]
